# key: entry, value: IC50
Tested on: fibroblasts isolated from human tunica albuginea (TA); TGF-β1-induced myofibroblast transformation
Experiment: In Cell ELISA (ICE) phenotypic screening assay of TGF-β1-induced myofibroblast transformation (α-SMA/DNA staining)
Assay type: cell-based
Conditions: co-incubation with 10 ng/ml TGF-β1 for 72 hours; α-SMA/DNA staining ratio; read-out: IC50, inhibition of TGF-β1-induced myofibroblasts transformation
Excerpt: Tunica albuginea tissue samples were collected from patients undergoing surgery at University College London Hospital (UCLH), London, UK for penile cancer or PD. All patients gave fully informed written consent to the study. The study was approved by independent research ethics committees (NRES Committee East of England 12/EE/0170 and NRES Committee North of Scotland 15/NS/0051). PD plaque tissue was obtained from patients with chronic PD undergoing a Lue procedure (plaque incision and grafting). […]
Reply with just the number (in µM).

Cc1cccc(-c2[nH]c(C(C)(C)C)nc2-c2ccc3c(c2)OCO3)n1
0.6

// IC50 value for O=C(c1ccc(OCCN2CCCCC2)cc1)c1c(-c2ccc(O)cc2)sc2cc(O)ccc12 : 7
